target: Hap1 (UniProt P0CE41); experiment: PBM E-score (8-mer binding enrichment) (E-score (-0.5 to 0.5)); higher = stronger / more preferred TF binding; settings: protein concentration: 200 nM; construct: GST-DNA-binding domain
Sequence (P0CE41 whole entry, the tested form may be a part): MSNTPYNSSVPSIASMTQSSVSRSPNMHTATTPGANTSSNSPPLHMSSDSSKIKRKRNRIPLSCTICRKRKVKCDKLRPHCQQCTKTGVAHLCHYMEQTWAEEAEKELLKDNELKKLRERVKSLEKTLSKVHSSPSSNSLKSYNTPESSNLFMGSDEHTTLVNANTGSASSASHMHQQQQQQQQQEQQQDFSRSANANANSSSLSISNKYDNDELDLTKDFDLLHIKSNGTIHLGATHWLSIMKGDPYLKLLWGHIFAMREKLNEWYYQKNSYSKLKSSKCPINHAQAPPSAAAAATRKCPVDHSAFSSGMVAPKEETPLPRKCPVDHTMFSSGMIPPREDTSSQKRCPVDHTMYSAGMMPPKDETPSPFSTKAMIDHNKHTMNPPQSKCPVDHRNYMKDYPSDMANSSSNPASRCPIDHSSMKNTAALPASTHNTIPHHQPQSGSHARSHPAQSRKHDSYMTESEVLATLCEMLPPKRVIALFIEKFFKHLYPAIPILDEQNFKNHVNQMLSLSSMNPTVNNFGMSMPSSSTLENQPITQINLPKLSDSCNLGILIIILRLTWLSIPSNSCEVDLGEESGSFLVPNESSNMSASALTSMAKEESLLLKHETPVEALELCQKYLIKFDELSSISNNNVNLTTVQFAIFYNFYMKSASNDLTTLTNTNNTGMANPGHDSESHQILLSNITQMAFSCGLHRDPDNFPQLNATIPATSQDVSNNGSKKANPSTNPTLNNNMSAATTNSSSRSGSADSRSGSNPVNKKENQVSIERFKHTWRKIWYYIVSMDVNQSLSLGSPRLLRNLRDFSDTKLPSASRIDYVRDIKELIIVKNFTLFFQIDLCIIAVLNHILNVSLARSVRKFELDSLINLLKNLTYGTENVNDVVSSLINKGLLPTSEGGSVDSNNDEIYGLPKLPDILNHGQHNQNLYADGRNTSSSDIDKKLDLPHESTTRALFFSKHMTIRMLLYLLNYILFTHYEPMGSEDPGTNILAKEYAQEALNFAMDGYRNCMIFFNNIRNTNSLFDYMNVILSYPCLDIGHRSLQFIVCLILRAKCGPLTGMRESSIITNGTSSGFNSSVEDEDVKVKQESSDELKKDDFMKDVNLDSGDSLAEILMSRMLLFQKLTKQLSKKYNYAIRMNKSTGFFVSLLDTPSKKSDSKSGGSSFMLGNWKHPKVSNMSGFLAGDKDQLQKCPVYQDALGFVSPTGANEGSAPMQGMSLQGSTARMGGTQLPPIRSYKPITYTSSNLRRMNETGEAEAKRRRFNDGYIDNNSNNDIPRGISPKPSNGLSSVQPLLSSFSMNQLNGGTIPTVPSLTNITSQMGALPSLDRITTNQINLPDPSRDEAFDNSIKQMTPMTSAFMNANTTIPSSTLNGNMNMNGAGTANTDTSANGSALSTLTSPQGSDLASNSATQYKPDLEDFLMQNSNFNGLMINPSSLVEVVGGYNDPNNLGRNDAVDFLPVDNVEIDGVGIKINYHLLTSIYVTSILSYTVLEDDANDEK
Whole data set: some 33,000 sequences, median “E-score (-0.5 to 0.5)” near -0.053, cut for the highest 2% near 0.37. This excerpt belongs to a sample that is enriched for the highest values.
Rule: 1.0 for PBM E-score not less than 0.07, 0.0 for anything less.

Sequence record: CGGTCTTA
Cat: 1.0

Sequence record: CCGTCCGA
Cat: 1.0

Sequence record: GCGTCCGA
Cat: 1.0

PBM E-score >= 0.07 for `ATCCGTAC` ?
1.0

What do you get for `ATCCGGCC` ?
1.0

What do you get for `AACCGGGG` ?
1.0

What do you get for `TAATCGGA` ?
1.0

What do you get for `CTATCGAA` ?
0.0

What do you get for `GTATCGAA` ?
0.0

What do you get for `ATATCGGA` ?
1.0

What do you get for `GAATCGGA` ?
1.0
